Parameter inhibition: see the listing below.
target: Amyloid-beta precursor protein (Homo sapiens) (UniProt P05067); test: Inhibition of Amyloid beta (1 to 42) (unknown origin) self aggregation at 10 uM measured every 5 mins with shake for 15 secs by ThT fluorescence assay relative to control
Sequence (P05067 whole entry): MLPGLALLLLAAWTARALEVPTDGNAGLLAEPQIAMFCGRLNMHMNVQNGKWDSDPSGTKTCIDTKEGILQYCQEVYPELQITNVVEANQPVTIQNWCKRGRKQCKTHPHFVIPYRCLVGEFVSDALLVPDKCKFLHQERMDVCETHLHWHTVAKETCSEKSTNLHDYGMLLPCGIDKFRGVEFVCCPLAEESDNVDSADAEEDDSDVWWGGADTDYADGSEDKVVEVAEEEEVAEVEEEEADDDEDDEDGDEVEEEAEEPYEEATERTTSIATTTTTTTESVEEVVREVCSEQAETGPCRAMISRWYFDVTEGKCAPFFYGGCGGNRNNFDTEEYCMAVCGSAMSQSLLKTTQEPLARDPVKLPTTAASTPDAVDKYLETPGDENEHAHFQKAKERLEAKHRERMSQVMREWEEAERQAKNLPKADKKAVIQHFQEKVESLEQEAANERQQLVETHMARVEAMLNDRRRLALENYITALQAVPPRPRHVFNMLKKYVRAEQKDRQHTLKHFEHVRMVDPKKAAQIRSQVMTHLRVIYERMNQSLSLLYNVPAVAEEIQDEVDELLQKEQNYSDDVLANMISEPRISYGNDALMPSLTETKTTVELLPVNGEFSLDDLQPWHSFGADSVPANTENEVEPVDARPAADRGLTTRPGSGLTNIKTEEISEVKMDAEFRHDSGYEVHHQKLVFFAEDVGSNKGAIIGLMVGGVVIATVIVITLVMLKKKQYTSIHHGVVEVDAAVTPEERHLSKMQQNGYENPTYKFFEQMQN
# number only, unit % dropped from output

Use these answered entries as a reference point.
>>> measurement("COc1cc(C2/C(=C\\c3ccc(OCc4ccccc4)c(OCc4ccccc4)c3)C(=O)c3cccn32)ccc1OCc1ccccc1 (configuration not stated)")
4.2
>>> measurement("O=C1/C(=C/c2ccc(O)c(O)c2)C(c2ccc(O)c(O)c2)n2cccc21 (configuration not stated)")
27
>>> measurement("COc1ccc(C2/C(=C\\c3ccc(O)c(O)c3)C(=O)c3cccn32)cc1O (configuration not stated)")
24.9

Q: Item under review: COc1cc(C2/C(=C\c3ccc(O)c(O)c3)C(=O)c3cccn32)ccc1O (configuration not stated) . Reported inhibition?
Result: 26.1

Q: Item under review: COc1ccc(/C=C2/C(=O)c3cccn3C2c2ccc(O)c(OC)c2)cc1O (configuration not stated) . Reported inhibition?
Result: 15.9

Q: Item under review: COc1ccc(C2/C(=C\c3ccc(O)c(OC)c3)C(=O)c3cccn32)cc1O (configuration not stated) . Reported inhibition?
Result: 12.8

Q: Item under review: COc1cc(/C=C2/C(=O)c3cccn3C2c2ccc(O)c(OC)c2)ccc1O (configuration not stated) . Reported inhibition?
Result: 10.4
